# maps each entry to its MDCK-MDR1: % Recov B-A (%)
# Tested on: MDR1-MDCK cell monolayers
# study-conditions: dog, MDCK-MDR1, 120 min, 5 μM, pH 7.4
Please give a number only; it is taken to be in %.

Below: 4 molecules and their reported MDCK-MDR1: % Recov B-A (%).
CN(c1cnc(-c2ccc(-c3cc[nH]c(=O)c3)cc2O)cn1)[C@@H]1CC2COC[C@H](N2)[C@@H]1F (single isomer, unassigned) [Compound 82E1] | 87
COc1cc(-c2cc(O)c(-c3cnc(N(C4CC4)[C@@H]4CC5CC[C@H](N5)[C@@H]4F)cn3)cc2F)cc(F)n1 (single isomer, unassigned) [Compound 37E1] | 53
CN(c1cnc(-c2ccc(-c3cn[nH]c3)cc2O)cn1)[C@H]1C[C@]2(C)CCC(N2)[C@H]1F (single isomer, unassigned) [Compound 28E1] | 80
CN(c1cnc(-c2ccc(-c3cnn(C)c3)cc2O)cn1)[C@@H]1CC2CC(F)(F)[C@@H](C1)N2 (single isomer, unassigned) [Compound 10E1] | 86

What MDCK-MDR1: % Recov B-A (%) value was documented for this molecule, CN(c1cnc(-c2ccc(-c3ccn(C)c(=O)c3)cc2O)cn1)[C@H]1C[C@@H]2CCC(N2)[C@H]1F (single isomer, unassigned) [Compound 45E2] ?
87

How about this molecule: CN(c1cnc(-c2cc(F)c(-c3cnn(C)c3)cc2O)cn1)[C@@H]1CC2N[C@H](C1)CC2(F)F (single isomer, unassigned) [Compound 66E2]
55

* * *

# Test system: MDR1
# test-description: in vitro
# study-conditions: dog, MDCK-MDR1, pH 7.4, MDCK-MDR1: Papp A-B (10^−6, cm/s)
Given measured Papp A→B at 120 min, 5 μM, output satisfied if it is greater than or equal to 2 ×10⁻⁶ cm/s and not satisfied if not.

Examples from the recorded data:
Cc1nc(-c2ccc(-c3cnc(N(C)[C@H]4C[C@@H]5CCC(N5)[C@H]4F)cn3)c(O)c2)no1 (single isomer, unassigned) | satisfied
Cn1cc(-c2ccc(-c3cnc(N(C4CC4)[C@@H]4C[C@@]5(C)CC[C@](C)(N5)[C@@H]4F)cn3)c(O)c2)cn1 | satisfied

Kindly determine if Papp A→B at 120 min, 5 μM recorded for CN(c1cnc(-c2cc(F)c(-c3cn[nH]c3)cc2O)cn1)[C@@H]1CC2CC(F)(F)[C@@H](C1)N2 (single isomer, unassigned) is above or exactly 2 ×10⁻⁶ cm/s.
satisfied

How about this molecule: CN(c1cnc(-c2cc(F)c(-c3cc(=O)n(C)cn3)cc2O)cn1)[C@H]1C[C@@H]2CCC(N2)[C@H]1F (single isomer, unassigned)
satisfied

How about this molecule: Cn1ccc(-c2cc(O)c(-c3cnc(N(C4CC4)[C@@H]4CC5CC[C@H](N5)[C@@H]4F)cn3)cc2F)cc1=O (single isomer, unassigned)
not satisfied

How about this molecule: "CNC(=O)/C=C/c1cc(O)c(-c2cnc(N(C)[C@H]3C[C@]4(C)CC[C@@](C)(N4)[C@H]3F)cn2)cc1F"
not satisfied

* * *

# Test system: MDR1
# test-description: in vitro
# study-conditions: dog, MDCK-MDR1, pH 7.4, MDCK-MDR1: Papp A-B (10^−6, cm/s)
measure-name: Papp A→B at 120 min, 5 μM

Below: 3 compounds and their reported Papp A→B at 120 min, 5 μM.
COc1cc(-c2ccc(-c3cnc(N(C)[C@@H]4CC5CC[C@H](N5)[C@@H]4F)cn3)c(O)c2)ncn1 (single isomer, unassigned) [Compound 48E1] | 4.15 ×10⁻⁶ cm/s
COc1cc(-c2ccc(-c3cnc(N(C4CC4)[C@H]4C[C@@H]5CCC(N5)[C@H]4F)cn3)c(O)c2)cc(F)n1 (single isomer, unassigned) [Compound 52E2] | 1.63 ×10⁻⁶ cm/s
CN(c1cnc(-c2ccc(-c3cc[nH]c(=O)c3)cc2O)cn1)[C@H]1C[C@@H]2CC[C@@H](N2)[C@H]1F [Compound 76E2] | 0.37 ×10⁻⁶ cm/s

What Papp A→B at 120 min, 5 μM value was documented for this compound, Cn1cnc(-c2ccc(-c3cnc(N(C4CC4)[C@H]4C[C@@H]5CCC(N5)[C@H]4F)cn3)c(O)c2)cc1=O (single isomer, unassigned) [Compound 55E2] ?
2.25 ×10⁻⁶ cm/s

How about this compound: CN(c1cnc(-c2cc(F)c(-c3cnn(C)c3)cc2O)cn1)[C@@H]1CC2CC(F)(F)[C@@H](C1)N2 (single isomer, unassigned) [Compound 66E1]
21.9 ×10⁻⁶ cm/s

How about this compound: CN(c1cnc(-c2cc3ccc(OCF)nc3cc2O)cn1)[C@H]1C[C@@H]2CCC(N2)[C@H]1F (single isomer, unassigned) [Compound 19E2]
2.81 ×10⁻⁶ cm/s

How about this compound: CN(c1cnc(-c2ccc(-c3cn[nH]c3)cc2O)cn1)[C@@H]1C[C@@]2(C)CC[C@H](N2)[C@@H]1F [Compound 28E4]
4.42 ×10⁻⁶ cm/s

How about this compound: O=c1cc(-c2ccc(-c3cnc(N(C4CC4)[C@@H]4CC5CC[C@H](N5)[C@@H]4F)cn3)c(O)c2)ccn1CF (single isomer, unassigned) [Compound 54E1]
1.92 ×10⁻⁶ cm/s

All figures here come from patent US11964971B2.
